Origin of measurements: the Human Domainome abundance scans (Beltran et al. 2025)

Field: abundance fitness. Provide a value for each of the variants that follow.
B1: Formin-binding protein 4, residues 593 to 636; numbered along this chain, Q8N3X1 (parent)
chain: EINATPKGWSCHWDRDHRRYFYVNEQSGESQWEFPDGEEEEEES

Variants of: B1
assay_procedure: abundance fitness (aPCA) (normalised: wild type 0, dead -1); higher = more abundant; growth selection in yeast, the domain comes from the species named
condition_label: Homo sapiens

S27M
-0.641

Fill in abundance fitness for each of the 7 variants listed.
1. Y22W
2. E43S
3. R15A
4. E42H
5. H12D
6. S30L
7. Y20D

Response given:
0.035
0.041
-0.059
-0.009
-0.646
-0.03
-0.64
